- studyTarget: Human Calpain 9/NS1 (Homo sapiens, UniProt O14815)
- Sequence (O14815 1-690): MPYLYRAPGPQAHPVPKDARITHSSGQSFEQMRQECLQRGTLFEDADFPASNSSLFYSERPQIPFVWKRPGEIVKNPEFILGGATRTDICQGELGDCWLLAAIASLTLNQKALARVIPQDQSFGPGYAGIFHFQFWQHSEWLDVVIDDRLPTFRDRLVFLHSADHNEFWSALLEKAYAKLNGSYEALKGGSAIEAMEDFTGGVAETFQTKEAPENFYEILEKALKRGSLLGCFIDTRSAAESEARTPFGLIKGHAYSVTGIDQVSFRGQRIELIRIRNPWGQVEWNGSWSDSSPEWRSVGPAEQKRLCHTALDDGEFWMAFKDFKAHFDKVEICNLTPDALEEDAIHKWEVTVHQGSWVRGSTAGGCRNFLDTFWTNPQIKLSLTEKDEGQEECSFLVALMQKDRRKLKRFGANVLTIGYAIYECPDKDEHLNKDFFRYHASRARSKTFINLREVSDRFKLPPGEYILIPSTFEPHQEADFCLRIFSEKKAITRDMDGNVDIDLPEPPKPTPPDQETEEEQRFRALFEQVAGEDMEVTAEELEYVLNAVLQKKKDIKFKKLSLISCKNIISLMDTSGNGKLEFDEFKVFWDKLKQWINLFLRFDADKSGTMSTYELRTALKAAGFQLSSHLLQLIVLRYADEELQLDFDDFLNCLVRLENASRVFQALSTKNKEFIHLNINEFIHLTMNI
- Sequence (P04632 1-268 partner): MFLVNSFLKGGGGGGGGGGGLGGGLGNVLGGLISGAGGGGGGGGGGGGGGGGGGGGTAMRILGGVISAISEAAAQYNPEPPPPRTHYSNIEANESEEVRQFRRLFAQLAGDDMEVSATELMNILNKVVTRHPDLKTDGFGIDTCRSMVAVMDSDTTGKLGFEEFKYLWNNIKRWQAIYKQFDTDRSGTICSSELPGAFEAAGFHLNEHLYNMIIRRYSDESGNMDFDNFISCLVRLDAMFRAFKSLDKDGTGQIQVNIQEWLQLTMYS
- testMethodNotes: Biochemical inhibition of calpain 9, continuous fluorescence (FRET substrate) assay
- runConditions: mean, read-out: Human Calpain 9/NS1 IC50 (nM)_MEAN
- Description: Calpain 1, 2, and 9 activity and inhibition thereof are assessed by means of a continuous fluorescence assay. The SensoLyte 520 Calpain substrate (Anaspec Inc) is optimized for detecting calpain activity. This substrate contains a novel internally quenched 5-FAM/QXL™ 520 FRET pair. Calpains 1, 2, and 9 cleave the FRET substrate into two separate fragments resulting in an increase of 5-FAM fluorescence that is proportional to calpain activity. […]
readout: IC50

                                   molecule  readout             value
0  CCNC(=O)C(=O)[C@@H]1Cc2ccc(cc2)OCCCCOc2cccc(c2)-c2ccn(n2)-c2ncccc2C(=O)N1     IC50         < 3000 nM
1  CCNC(=O)C(=O)[C@@H]1Cc2ccc(cc2)OCCCCOc2ccc3c(cnn3-c3ncccc3C(=O)N1)c2     IC50         < 3000 nM
2        O=C[C@@H]1CCCCOCCOCc2ccccc2C(=O)N1     IC50         < 3000 nM
3  O=C(NCc1ccccc1)C(=O)[C@@H]1CC=CCCCCOc2ccccc2C(=O)N1     IC50  3000 to 10000 nM
4  O=C(NCc1ccccn1)C(=O)C1CCCCOCCOCc2ccccc2C(=O)N1 (stereo not shown)     IC50         < 3000 nM
5  O=C(NC1(c2cccnc2)CC1)C(=O)C1CCCCOCCOCc2ccccc2C(=O)N1 (stereo not shown)     IC50        > 10000 nM
6  O=C(NCc1ccc(F)cc1)C(=O)C1CCCCOCCOCc2ccccc2C(=O)N1 (stereo not shown)     IC50         < 3000 nM

----------
- studyTarget: Human Calpain 2/NS1 (Homo sapiens, UniProt P17655)
- Sequence (P17655 1-700): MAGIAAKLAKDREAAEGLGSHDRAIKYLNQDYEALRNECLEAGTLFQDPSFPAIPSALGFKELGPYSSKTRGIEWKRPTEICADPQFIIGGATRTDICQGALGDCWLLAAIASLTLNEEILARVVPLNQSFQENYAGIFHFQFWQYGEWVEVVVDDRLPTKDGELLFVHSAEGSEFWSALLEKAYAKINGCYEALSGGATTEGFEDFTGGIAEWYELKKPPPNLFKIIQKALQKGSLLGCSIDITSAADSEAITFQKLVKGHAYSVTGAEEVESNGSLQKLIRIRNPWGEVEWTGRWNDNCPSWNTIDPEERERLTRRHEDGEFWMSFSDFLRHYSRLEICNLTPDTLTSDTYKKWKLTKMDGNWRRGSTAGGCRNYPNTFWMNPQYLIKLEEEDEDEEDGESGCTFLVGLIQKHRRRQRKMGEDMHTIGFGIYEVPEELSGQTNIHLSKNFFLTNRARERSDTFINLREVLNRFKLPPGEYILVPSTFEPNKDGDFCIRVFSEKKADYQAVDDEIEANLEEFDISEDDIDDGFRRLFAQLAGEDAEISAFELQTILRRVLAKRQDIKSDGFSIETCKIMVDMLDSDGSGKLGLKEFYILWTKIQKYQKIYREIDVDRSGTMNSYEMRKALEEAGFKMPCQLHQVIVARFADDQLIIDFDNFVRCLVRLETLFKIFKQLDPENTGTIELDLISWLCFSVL
- Sequence (P04632 1-268 partner): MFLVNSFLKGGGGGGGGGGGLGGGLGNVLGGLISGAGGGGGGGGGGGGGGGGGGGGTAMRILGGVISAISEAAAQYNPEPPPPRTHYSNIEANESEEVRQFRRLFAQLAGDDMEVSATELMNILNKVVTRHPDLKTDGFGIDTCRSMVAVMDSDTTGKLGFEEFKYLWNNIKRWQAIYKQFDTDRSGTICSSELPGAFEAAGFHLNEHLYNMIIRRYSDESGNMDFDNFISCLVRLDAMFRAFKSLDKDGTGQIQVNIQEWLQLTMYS
- testMethodNotes: Biochemical inhibition of calpain 2, continuous fluorescence (FRET substrate) assay
- runConditions: mean, read-out: Human Calpain 2/NS1 IC50 (nM)_MEAN
Entries and their IC50 values follow.
readout: IC50

>>> print(df.to_string())
                                   molecule       value
0  NC(=O)C(=O)[C@@H]1CCCCCOc2cccc(c2)-c2ncccc2C(=O)N1   < 3000 nM
1  CC(C)(NC(=O)C(=O)C1CCCCOCCOCc2ccccc2C(=O)N1)c1cccnc1 (stereo not shown)  > 10000 nM
2  O=C1NC(C(=O)C(=O)N2CCOCC2)CCCCOCCOCc2ccccc21 (stereo not shown)  > 10000 nM
3  O=C[C@@H]1Cc2ccc(cc2)CC=CCc2cccc(c2)-c2ccn(n2)-c2ncccc2C(=O)N1   < 3000 nM
4      O=C[C@@H]1CC=CCOCCCOCc2ccccc2C(=O)N1   < 3000 nM
5  O=C(NCCN1CCOCC1)C(=O)C1CCCCOCCOCc2ccccc2C(=O)N1 (stereo not shown)  > 10000 nM
6  CS(=O)(=O)c1cccc(CNC(=O)C(=O)C2CCCCOCCOCc3ccccc3C(=O)N2)c1 (stereo not shown)  > 10000 nM

----------
- studyTarget: Human Calpain 1/NS1 (Homo sapiens)
- Sequence (P07384 1-714): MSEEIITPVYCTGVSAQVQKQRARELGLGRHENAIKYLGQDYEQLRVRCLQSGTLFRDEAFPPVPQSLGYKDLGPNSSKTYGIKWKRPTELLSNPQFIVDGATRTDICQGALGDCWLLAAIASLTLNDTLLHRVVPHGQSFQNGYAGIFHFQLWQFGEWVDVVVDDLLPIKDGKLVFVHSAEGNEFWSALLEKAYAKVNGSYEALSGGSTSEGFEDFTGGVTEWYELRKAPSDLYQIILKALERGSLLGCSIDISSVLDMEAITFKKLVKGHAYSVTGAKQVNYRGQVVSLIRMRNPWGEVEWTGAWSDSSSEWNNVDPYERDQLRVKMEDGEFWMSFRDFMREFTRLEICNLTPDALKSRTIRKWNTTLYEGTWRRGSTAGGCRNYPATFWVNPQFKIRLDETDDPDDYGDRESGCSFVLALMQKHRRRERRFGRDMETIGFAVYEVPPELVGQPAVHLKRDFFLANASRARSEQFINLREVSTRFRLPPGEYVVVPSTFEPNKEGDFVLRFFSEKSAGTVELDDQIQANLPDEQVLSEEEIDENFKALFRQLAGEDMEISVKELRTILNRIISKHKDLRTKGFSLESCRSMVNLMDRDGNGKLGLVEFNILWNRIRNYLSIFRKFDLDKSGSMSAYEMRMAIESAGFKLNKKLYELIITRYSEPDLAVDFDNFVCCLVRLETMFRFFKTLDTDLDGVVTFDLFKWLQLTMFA
- Sequence (P04632 1-268 partner): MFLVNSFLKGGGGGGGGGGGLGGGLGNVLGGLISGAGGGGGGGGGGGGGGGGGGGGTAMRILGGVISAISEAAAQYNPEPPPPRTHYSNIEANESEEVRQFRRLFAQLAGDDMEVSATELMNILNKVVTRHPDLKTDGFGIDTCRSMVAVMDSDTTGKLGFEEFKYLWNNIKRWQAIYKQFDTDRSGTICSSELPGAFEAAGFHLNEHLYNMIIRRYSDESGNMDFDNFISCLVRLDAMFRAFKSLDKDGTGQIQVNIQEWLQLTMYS
- testMethodNotes: Biochemical inhibition of calpain 1, continuous fluorescence (FRET substrate) assay
- runConditions: mean, read-out: Human Calpain 1/NS1 IC50 (nM)_MEAN
- Experimental: Calpain 1, 2, and 9 activity and inhibition thereof are assessed by means of a continuous fluorescence assay. The SensoLyte 520 Calpain substrate (Anaspec Inc) is optimized for detecting calpain activity. This substrate contains a novel internally quenched 5-FAM/QXL™ 520 FRET pair. Calpains 1, 2, and 9 cleave the FRET substrate into two separate fragments resulting in an increase of 5-FAM fluorescence that is proportional to calpain activity. […]
readout: IC50

>>> print(df.to_string())
                                    compound  readout       value
 0  O=C[C@@H]1CC=CCCOc2cccc(c2)-c2ncccc2C(=O)N1     IC50   < 3000 nM
 1  CCOC(=O)CCNC(=O)C(=O)[C@@H]1CCCCOCCOCc2ccccc2C(=O)N1     IC50  > 10000 nM
 2  C[C@H](NC(=O)C(=O)C1CCCCOCCOCc2ccccc2C(=O)N1)c1cccnc1 (some centres unmarked)     IC50  > 10000 nM
 3        O=C[C@@H]1CC=CCCCOCc2ccccc2C(=O)N1     IC50  > 10000 nM
 4  O=C(NC1CC1)C(=O)[C@@H]1Cc2ccc(cc2)OCCCCOc2cccc(c2)-c2ccn(n2)-c2ncccc2C(=O)N1     IC50   < 3000 nM
 5  NC(=O)C(=O)[C@@H]1C/C=C\CCOc2ccnc(n2)-c2ccccc2C(=O)N1     IC50   < 3000 nM
 6  Cn1cc2c(n1)-c1cccc(c1)OCCCCC[C@@H](C(=O)C(N)=O)NC2=O     IC50  > 10000 nM
 7  Cc1cccc(C)c1NC(=O)C(=O)[C@@H]1C/C=C\COCCOCc2ccccc2C(=O)N1     IC50  > 10000 nM
 8  NC(=O)C(=O)[C@@H]1CCCCCCOc2ccnc(n2)-c2ccccc2C(=O)N1     IC50   < 3000 nM
 9  COCCOCCOCCNC(=O)C(=O)C1CCCCOCCOCc2ccccc2C(=O)N1 (centres unmarked)     IC50  > 10000 nM
10  O=C(NCc1ccc(Cl)c(Cl)c1)C(=O)C1CCCCOCCOCc2ccccc2C(=O)N1 (centres unmarked)     IC50  > 10000 nM
